tested on: HCT-116; assay: Cytotoxicity against human HCT116 cells; type: functional, cell-based
So basically: is IC50 under 2000 nM? Then Met. Not under? Then Not met.

>  <sampleSmiles>
COc1cc(N2CCN(S(C)(=O)=O)CC2)ccc1Nc1ncc2ccn(-c3ccccn3)c2n1

>  <targetOrSystem>
HCT-116

>  <class>
Not met

$$$$
>  <sampleSmiles>
COc1cc(N2CCOCC2)ccc1Nc1ncc2cccc(NC3CCCCC3)c2n1

>  <targetOrSystem>
HCT-116

>  <class>
Not met

$$$$
>  <sampleSmiles>
COc1cc(N2CCN(S(C)(=O)=O)CC2)ccc1Nc1ncc2cccc(-c3ccccc3)c2n1

>  <targetOrSystem>
HCT-116

>  <class>
Met

$$$$
>  <sampleSmiles>
COc1cc(N2CCN(S(C)(=O)=O)CC2)ccc1Nc1ncc2cccc(NC3CCCCC3)c2n1

>  <targetOrSystem>
HCT-116

>  <class>
Met

$$$$
>  <sampleSmiles>
COc1cc(N2CCOCC2)ccc1Nc1ncc2cccc(-c3ccccc3)c2n1

>  <targetOrSystem>
HCT-116

>  <class>
Met

$$$$

Incoming: Decide: IC50 of Cc1cc(N2CCOCC2)ccc1Nc1nc(NC2CCCCC2)c2nc[nH]c2n1 strictly below 2000 nM?
Outgoing: Met

Incoming: Same read-out for COc1cc(N2CCN(S(C)(=O)=O)CC2)ccc1Nc1ncc2cccc(-c3cccnc3)c2n1 ?
Outgoing: Met

Incoming: What do you have for COc1cc(N2CCN(S(C)(=O)=O)CC2)ccc1Nc1ncc(C)c(NC2CCCCC2)n1 ?
Outgoing: Met

* * *

tested on: HCT-116; assay: Cytotoxicity against human HCT116 cells; assay type: functional, cell-based
IC50 listing for selected compounds.

Examples with their reported IC50 follow.
>  <sampleSmiles>
COc1cc(N2CCN(S(C)(=O)=O)CC2)ccc1Nc1ncc2ccn(C3CCCCC3)c2n1

>  <IC50>
0.75 µM

$$$$
>  <sampleSmiles>
COc1cc(N2CCOCC2)ccc1Nc1ncc2ccn(C3CCCCC3)c2n1

>  <IC50>
7.5 µM

$$$$

Incoming: Need IC50, item Cc1cc(N2CCOCC2)ccc1Nc1ncc2ccn(C3CCCCC3)c2n1
Outgoing: 8.6 µM

* * *

For reference, pIC50 measured on Dual specificity protein kinase TTK (Homo sapiens, UniProt P33981):
Field pIC50 (float): negative decimal logarithm of the concentration in molar.

>  <sampleSmiles>
COc1cc(N2CCN(S(C)(=O)=O)CC2)ccc1Nc1nccc(N(C)C2CCCCC2)n1

>  <experimentalValue>
7.46

$$$$

Switching to the query record.
Incoming: I would be grateful if you could share the reported pIC50 for COc1cc(N2CCN(S(C)(=O)=O)CC2)ccc1Nc1ncc2ccn(-c3ccccn3)c2n1 .
Outgoing: 7.49
